# ASSAYED_SYSTEM: MAP4K4 (Homo sapiens)
# Construct: recombinant kinase of the ThermoFisher SelectScreen service
# Sequence (O95819 2-1239): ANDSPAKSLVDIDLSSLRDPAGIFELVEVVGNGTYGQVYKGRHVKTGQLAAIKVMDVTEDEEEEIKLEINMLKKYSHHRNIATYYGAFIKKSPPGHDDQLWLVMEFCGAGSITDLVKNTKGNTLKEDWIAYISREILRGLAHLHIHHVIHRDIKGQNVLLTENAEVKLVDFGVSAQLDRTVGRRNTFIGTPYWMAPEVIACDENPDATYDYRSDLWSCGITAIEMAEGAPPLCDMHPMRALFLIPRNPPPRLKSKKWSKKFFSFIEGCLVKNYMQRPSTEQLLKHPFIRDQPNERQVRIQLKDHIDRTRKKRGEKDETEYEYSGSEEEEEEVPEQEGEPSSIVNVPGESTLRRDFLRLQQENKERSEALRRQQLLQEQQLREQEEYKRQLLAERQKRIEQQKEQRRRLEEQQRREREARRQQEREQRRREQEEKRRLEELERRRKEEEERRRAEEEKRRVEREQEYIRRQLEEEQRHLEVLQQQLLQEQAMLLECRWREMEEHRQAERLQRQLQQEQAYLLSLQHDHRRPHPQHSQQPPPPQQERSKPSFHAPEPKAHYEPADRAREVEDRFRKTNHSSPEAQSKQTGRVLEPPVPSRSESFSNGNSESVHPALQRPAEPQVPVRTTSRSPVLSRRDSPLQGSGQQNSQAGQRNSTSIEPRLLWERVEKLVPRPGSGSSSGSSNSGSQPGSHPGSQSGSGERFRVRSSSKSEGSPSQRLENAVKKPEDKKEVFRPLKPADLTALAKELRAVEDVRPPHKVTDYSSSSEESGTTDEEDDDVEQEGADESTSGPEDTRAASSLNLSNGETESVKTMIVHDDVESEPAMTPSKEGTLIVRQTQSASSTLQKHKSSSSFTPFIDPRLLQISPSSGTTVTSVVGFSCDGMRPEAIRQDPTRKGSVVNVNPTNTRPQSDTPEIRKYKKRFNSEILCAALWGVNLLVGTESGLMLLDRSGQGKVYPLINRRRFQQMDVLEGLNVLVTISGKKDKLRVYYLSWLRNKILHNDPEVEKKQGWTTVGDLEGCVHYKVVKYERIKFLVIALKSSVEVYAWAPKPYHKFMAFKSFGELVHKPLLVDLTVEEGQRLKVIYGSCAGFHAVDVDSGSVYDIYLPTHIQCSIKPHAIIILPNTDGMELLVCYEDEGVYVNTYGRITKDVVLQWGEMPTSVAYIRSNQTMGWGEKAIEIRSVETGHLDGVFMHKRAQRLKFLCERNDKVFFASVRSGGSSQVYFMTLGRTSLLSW
# PROTOCOL_DESCRIPTION: Z'LYTE kinase activity assay
# ASSAY_CONDITIONS: 1 h incubation with ATP
One threshold, 300 nM, splits the recorded IC50 values: lower ones are Y, equal or higher ones are N.

INPUT_SMILES | ASSAYED_SYSTEM | GROUP
CSc1ccc(CNC(=O)c2ccc3c(c2)NC(=O)C(=Cc2cccc(Cl)c2)O3)cc1 | MAP4K4 (Homo sapiens) | Y
CCOc1ccc(CNC(=O)c2ccc3c(c2)NC(=O)C(=Cc2ccc(Cl)cc2)O3)cc1OC | MAP4K4 (Homo sapiens) | N
CCOc1ccc(CNC(=O)c2ccc3c(c2)NC(=O)C(=Cc2cccc(Cl)c2)O3)cc1OC | MAP4K4 (Homo sapiens) | N
O=C1Nc2cc(C(=O)NCc3cccc(F)c3)ccc2OC1=Cc1ccc(Cl)cc1 | MAP4K4 (Homo sapiens) | N
CN1CCN(CCNC(=O)c2ccc3c(c2)NC(=O)C(=Cc2ccc(Cl)cc2)O3)CC1 | MAP4K4 (Homo sapiens) | Y
COc1ccc(CCNC(=O)c2ccc3c(c2)NC(=O)C(=Cc2cccc(Cl)c2)O3)cc1OC | MAP4K4 (Homo sapiens) | Y

FYI, the data here is from paper PMC9873280.
